Test system: Plasmodium berghei
Assay: Screen against P. berghei liver stage (PbLuc), transformed with Luciferase, at 10uM
Assay type: functional, HepG2
Conditions: tested at 10 uM
The campaign covered roughly 69,000 compounds. About 8,600 (12%) showed an effect of 50% or more. What follows is part of a selection rich in strong results, with near analogues and random picks from the rest.
Category | rule: reported INHIBITION within range, see lower segment: < 30%; middle segment: ≥ 30% and < 50%; upper segment: ≥ 50%

compound=O=C(NCc1nnc2n1CCCC2)c1cn(-c2ccccc2)nn1 label="middle segment"
compound="Cc1cccc(CN2CCC3(CCN(c4ncccn4)C3)C2=O)c1 (stereo not drawn)" label="lower segment"
compound="COCC(O)CN(C)C(=O)NCc1ccc(-c2ccn[nH]2)cc1 (stereo not drawn)" label="upper segment"
compound="COc1cccc(N2CC3(CCN(c4cc(OC)ncn4)C3)CC2=O)c1 (stereo not drawn)" label="middle segment"
compound="CN(CCC(C)(C)O)C(=O)C1CCC(=O)N(Cc2ccc(Cl)cc2)C1 (stereo not drawn)" label="middle segment"
compound=O=C(NCCCc1nc(=O)[nH][nH]1)c1ccc(Cl)cn1 label="upper segment"
compound=O=C(NCCCc1nc(=O)[nH][nH]1)Nc1ccc(Cl)cc1 label="lower segment"
compound=CN(C)S(=O)(=O)N1C[C@@H]2C[C@H](C(=O)Nc3cccnc3)[C@H](C1)O2 label="middle segment"
compound=O=C(NCCCc1nc(=O)[nH][nH]1)Nc1cccc(F)c1 label="middle segment"
compound=O=C(NCc1nnc2n1CCC2)c1cn(-c2ccccc2)nn1 label="lower segment"
compound=Cc1ccc(C)n1-c1ccsc1C(=O)NCC(=O)N1CCCC1 label="lower segment"
compound="N#Cc1ccc(N2CCCC3(CCN(c4cncnc4)C3=O)C2)nc1 (stereo not drawn)" label="upper segment"
compound=O=C(NC1CCCC1)c1ccnc(C2CCNCC2)c1 label="lower segment"
compound=Cc1cccc(CN2CCC3(CCN(c4ncccn4)CC3)C2=O)c1 label="middle segment"
compound=N#Cc1ncn(CCC(=O)Nc2cccc(Cl)c2)n1 label="middle segment"
compound="O=C1N(c2cncnc2)CCC12CCCN(Cc1ccccn1)C2 (stereo not drawn)" label="lower segment"
compound="O=C1N(Cc2cccnc2)CCC12CCCN(c1ncccn1)C2 (stereo not drawn)" label="upper segment"
compound=CN1CCC(O)(CCNC(=O)[C@@]23CNC[C@@H]2CN(C2CCCC2)C3)CC1 label="upper segment"
compound="CNS(=O)(=O)c1ccc(CNC(=O)N(C)CC(O)COC)cc1 (stereo not drawn)" label="middle segment"
compound=CNS(=O)(=O)CCNC(=O)[C@@]12CNC[C@@H]1CN(C1CCCC1)C2 label="lower segment"

meta.source: ChEMBL document CHEMBL4513216
